tested.system: Cytochrome P450 3A4 (Homo sapiens)
test.protocol: qHTS Assay for Inhibitors and Substrates of Cytochrome P450 3A4 (AID 884); also: nearly all actives have a fitted effect of over 50% in size; also: potency is read from the fitted curve at half-maximal effect
particulars: recombinant CYP3A4, Luciferin-PPXE luminescence; series mostly up to 57.1 µM
Inconclusive results are not listed. Active and inactive are the calls of the source. Calls follow the shape of the dose curve; as a rule, active = well fitted inhibition curve with a large enough effect; inconclusive = small, poorly fitted or top-dose-only effect; inactive = no such curve, though single readings can be large or run the other way.
endpoint.name: Potency

{"columns": ["compound", "Potency"],
 "data": [
  ["CCC[C@@H]1C[C@@]1(CCC)[C@@H](NC(=O)c1ccccc1)c1ccc(C(=O)OC)cc1", "6.31 µM (active)"],
  ["COc1ccc2c(c1OC)C(Cc1ccccc1)N1CCc3cc4c(cc3C1C2)OCO4 (configuration not stated)", "1 µM (active)"],
  ["COC(=O)c1ccc(C(NC(=O)OCc2ccccc2)/C(C)=C/[C@@H](C)C(=O)Nc2ccc(OC)cc2)cc1 (some centres not stated)", "2.51 µM (active)"],
  ["COc1ccc(OCC2CN3C(CCC(C)C3c3ccc(Br)cc3)C(=O)O2)cc1 (configuration not stated)", "3.98 µM (active)"],
  ["CCC1=C(OC(=O)N(CC)CC)N2C(=O)OC(=NCC3CC3)[C@]2(Cc2ccccc2)[C@H]2C1=CC[C@H]1C(=O)N(C)C(=O)[C@H]12", "3.98 µM (active)"]
]}

Returns the measured Potency for the input compound. Input: C=CCOC(=O)C(C(C)=O)C(NC(=O)OC)c1ccc(Cl)cc1 (configuration not stated) 1.26 µM (active)

Try the compound CN(C)c1cccc(OC2C=CC(C#Cc3ccccc3)OC2CO)c1 (configuration not stated) 3.98 µM (active)

Try the compound COCCNC(=O)C1(CC(C)C)C=CCN1C(C)=O (configuration not stated) inactive

Try the compound CNC(=O)Oc1ccc2c(c1)[C@@]1(C)CCN(C)C1N2C (some centres not stated) inactive

Try the compound C/C=C/OC(=O)NC(c1ccccc1)[C@@]1(C(=O)OCC)CCCC1=O (some centres not stated) 0.0158 µM (active)

Try the compound Cc1cc2c(nc1C)CCCCN2C[C@H](C)O/N=C\[C@@H](C)[C@H](OCc1ccccc1)C(C)C 3.98 µM (active)

Try the compound C=CCOC(=O)C(C(C)=O)C(NC(=O)OC)c1ccccc1 (configuration not stated) 3.98 µM (active)

Try the compound OB(O)c1cc2ccccc2o1 inactive

Try the compound CCC1=C(OC(=O)N(CC)CC)N2C(=O)OC(=NCC3CC3)[C@]2(C)[C@H]2C1=CC[C@H]1C(=O)N(CC)C(=O)[C@H]12 3.98 µM (active)

Try the compound NC(C(=O)O)C(O)C(=O)O (configuration not stated) inactive

Try the compound COC(=O)CC[C@@H](C)[C@H]1CC[C@H]2[C@@H]3CC[C@@H]4C[C@H](O)CC[C@]4(C)[C@H]3C[C@H](O)[C@]12C inactive

Try the compound COC(=O)c1ccc(C(/C=C/[C@@H](C)C(=O)N(C)Cc2ccccc2)NC(=O)OCc2ccccc2)cc1 (some centres not stated) 1.58 µM (active)

Try the compound CC1(C(=O)NCC2CC2)C=CC2(CCCCC2)N1C(=O)c1ccccc1 (configuration not stated) 7.94 µM (active)

Try the compound C[C@]1(C(=O)NCCc2c[nH]c3ccccc23)C=C[C@@H](Cc2ccccc2)N1C(=O)c1ccccc1 1.58 µM (active)

Try the compound COC(=O)c1cccc(C23CC4(C2)[C@H](CN(CC2CCCCC2)[C@@H]4c2ccccc2)C3c2ccccc2)c1 (some centres not stated) 15.8 µM (active)

Try the compound NC(N)=N/N=C\c1c(Cl)cccc1Cl inactive

Try the compound CCCCCCN(C(=O)CCCCCN1C(=O)NC(c2ccc(-c3ccccc3)cc2)C(C(=O)OCc2ccccc2)=C1C)C(C(=O)NCCCC)c1ccc(OCC(=O)OC)cc1 (configuration not stated) 10 µM (active)

Try the compound CSCCC(N)C(=O)NC(CC(C)C)C(=O)NC(Cc1ccccc1)C(=O)O (configuration not stated) inactive

Try the compound COC(=O)[C@@H]1C[C@@H]2CC[C@@H](O)C[C@@H]2N1Cc1ccc(-c2ccccc2)cc1 20 µM (active)
